Hey, just so you know, these numbers are from BindingDB's records for doi:10.1021/jm00076a015.

subject.of.test: Ribonucleoside-diphosphate reductase large subunit (Mus musculus)
Sequence (P07742 whole entry): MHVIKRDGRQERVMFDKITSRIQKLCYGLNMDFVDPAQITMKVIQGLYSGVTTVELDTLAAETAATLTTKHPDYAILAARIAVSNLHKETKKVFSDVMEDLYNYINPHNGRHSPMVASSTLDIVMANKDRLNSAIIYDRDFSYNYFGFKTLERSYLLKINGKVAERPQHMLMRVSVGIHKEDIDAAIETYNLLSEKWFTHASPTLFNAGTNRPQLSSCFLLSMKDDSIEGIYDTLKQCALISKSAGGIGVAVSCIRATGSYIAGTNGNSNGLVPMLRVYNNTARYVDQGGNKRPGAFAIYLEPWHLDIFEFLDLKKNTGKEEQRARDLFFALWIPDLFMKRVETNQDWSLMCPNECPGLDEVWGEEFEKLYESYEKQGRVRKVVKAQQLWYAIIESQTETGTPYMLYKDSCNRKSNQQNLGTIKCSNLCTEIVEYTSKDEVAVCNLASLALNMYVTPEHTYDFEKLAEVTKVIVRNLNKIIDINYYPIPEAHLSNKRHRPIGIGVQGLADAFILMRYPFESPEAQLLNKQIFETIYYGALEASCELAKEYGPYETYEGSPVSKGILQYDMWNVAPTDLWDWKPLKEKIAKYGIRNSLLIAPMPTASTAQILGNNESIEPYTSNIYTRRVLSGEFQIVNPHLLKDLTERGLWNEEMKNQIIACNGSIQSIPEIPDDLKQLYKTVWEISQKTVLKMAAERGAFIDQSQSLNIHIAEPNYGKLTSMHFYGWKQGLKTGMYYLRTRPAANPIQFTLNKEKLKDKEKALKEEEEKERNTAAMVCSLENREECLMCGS
assay.notes: ChEBML_195421
value.kind: IC50 (µM)
Answers are plain numbers, in µM.

Query string: Write down IC50 measured for item Ac-AGAFTFNEDF-OH
Result string: 41
